target: Myo3, P36006; assay: SPOT array; settings: median of control spots 468
reported_property: SPOT intensity

Consider the worked cases shown below.
SRYRRPLTLLLLKPF: 8
IVNKPLPPLPVAGSS: 0
VPPPMQPPPIESSNL: 318

[a] WTQRRGPLVVYAEDN
[b] NPLPKEPRLPKRKVA
Sorting ascending by SPOT intensity, which comes first: a or b ? The response must carry the label of the picked entry. a
(a: 0, b: 7)
